assay: ATG_NFI_CIS: Attagene CIS-FACTORIAL HepG2 Assay for human Nuclear Factor I (NFI) (AID 2282989); details: HepG2 cis-regulatory reporter, NFI response element transcription; actives raise or lower the signal
Calls of active or inactive are those of the source. The calls were made as follows: active = hit-call score of the fitted dose curve at least 0.9, where 1 is the maximum; inactive = score below 0.9.
Mark one answer only. Choices: active, inactive

Worked examples follow.
compound	assignedClass
CCC12COCN1COC2	inactive
CCCCOC(=O)c1ccccc1C(=O)OCc1ccccc1	inactive
Oc1ccc2ccc3cccc4ccc1c2c34	inactive
COc1cc(C=O)cc2c1[C@H](COC(N)=O)[C@]1(OC(C)=O)ON2C[C@H]2[C@@H]1N2C(C)=O	active

Prompt: State the result this test recorded for `CC(C)(OOC(C)(C)c1ccccc1)c1ccccc1` .
Completion: active

Prompt: State the result this test recorded for `Clc1ccc(C(c2ccc(Cl)cc2)C(Cl)Cl)cc1` .
Completion: active

Prompt: State the result this test recorded for `CCCCCOC(=O)c1ccccc1C(=O)OCCCCC` .
Completion: inactive

---

read-out: Monocyte Chemoattractant Protein-1 (MCP1), CCL2 (gene 6347); assay: BSK_4H_MCP1: BioMAP Diversity Plus: 4H Assay for Monocyte Chemoattractant Protein-1 (MCP1) Biomarker Activity (AID 2283018); conditions: primary human endothelial cells (HUVEC); actives raise or lower the signal
Calls of active or inactive are those of the source. Rule for the calls: active = hit-call score of the fitted dose curve at least 0.9, where 1 is the maximum; inactive = score below 0.9.
parameterMeasured: AC50

The cases that follow already have their AC50 on record.
molecule	AC50
Clc1ccc(C(c2ccc(Cl)cc2)C(Cl)Cl)cc1	10.2 µM (active)
COc1cc(C=O)cc2c1[C@H](COC(N)=O)[C@]1(OC(C)=O)ON2C[C@H]2[C@@H]1N2C(C)=O	3.22 µM (active)
CC(C)(OOC(C)(C)c1ccccc1)c1ccccc1	26.5 µM (active)
CCCCCCCCCCCCCN1CC(C)OC(C)C1 (stereo unspecified)	inactive
O=C(O)C1C2CCC(O2)C1C(=O)O (stereo unspecified)	inactive

Alright, here's another molecule for you.
Prompt: Returns the measured AC50 for the input molecule. Input: `CCCSC(=O)N(CCC)CCC`
Completion: inactive

---

read-out: Heat shock 70 kDa protein 1 (HSPA1A), gene 3303; assay: LTEA_HepaRG_HSPA1A: Life Technologies and Expression Analysis (LTEA) Assay for Heat shock 70 kDa protein 1 (HSPA1A) using HepaRG (AID 2283502); settings: mRNA level, 48 h; actives raise or lower the signal
Active and inactive are the calls of the source. Rule for the calls: active = hit-call score of the fitted dose curve at least 0.9, where 1 is the maximum; inactive = score below 0.9.
Mark one answer only. Choices: True for active, False for inactive

Worked examples follow.
molecule	assignedClass
N#CC(Br)(Br)C(N)=O	False
ClC1=C(Cl)[C@]2(Cl)[C@H]3[C@H]([C@@H]4C=C[C@H]3C4)[C@@]1(Cl)C2(Cl)Cl	False
COC(=O)Nc1nc2ccccc2[nH]1	False
CCCCCCCCCCCCCN1CC(C)OC(C)C1 (configuration not stated)	False
c1ccc2c(c1)oc1ccccc12	False
[O-][Cl+]O	False
CC(C)COC(=O)c1ccccc1C(=O)OCC(C)C	False
Nc1cc(Cl)cc(C(=O)O)c1Cl	False
O=C(Nc1ccccc1)c1ccccc1I	False
Cc1ccc(N)c(N)c1	False

Prompt: State the result this test recorded for `CCN(CC)CCO` .
Completion: False

Prompt: State the result this test recorded for ClC1=C(Cl)C2(Cl)C3C(Cl)C=CC3C1(Cl)C2(Cl)Cl (configuration not stated) .
Completion: True
